Biological target: DMC1 ΔN (Homo sapiens, UniProt Q14565)
Construct: DMC1 ΔN (83-340) were cloned into pHAT4; His6 (TEV-cleavable) (N, cleaved yes); made in house; host or cells: E. coli BL21 (DE3)
Sequence (Q14565 83-340): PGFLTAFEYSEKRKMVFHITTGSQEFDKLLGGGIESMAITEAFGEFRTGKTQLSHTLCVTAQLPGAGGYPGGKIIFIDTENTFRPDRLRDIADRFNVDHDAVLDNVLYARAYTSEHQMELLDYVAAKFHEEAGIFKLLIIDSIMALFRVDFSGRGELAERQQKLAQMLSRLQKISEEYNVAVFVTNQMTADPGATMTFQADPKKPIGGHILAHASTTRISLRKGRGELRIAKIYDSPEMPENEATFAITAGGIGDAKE
Assay: Amylose pull-down of DMC1 ΔN with MBP-BRCA2 fusions
Format: binding
Conditions: recombinant co-expression with MBP-BRCA2 fusion
No end group written: not given here.
Readout type: binding in pull-down

Ex14-AAA: Ex14 with alanine mutations F2406A, P2408A, P2409A (ATRNEKMRHLITTGRPTKVAVAAFKTKSHFHRVE; left off: His6, end not stated, cleaved | MBP, end not stated, cleaved) : not
BRC4: BRCA2 BRC repeat 4 peptide, amino acids 1519-1551 (PTLLGFHTASGKKVKIAKESLDKVKNLFDEKEQ; not fully specified; left off: His6, end not stated, state not stated | MBP, end not stated, kept) [reference compound] : bind
ATRNEKMRHLITTGRPTKVFVPPFKTKSHFHRVE [Ex14] : bind
Ex27: BRCA2 exon 27 PhePP peptide, amino acids 3270-3315 (ALDFLSRLPLPPPVSPICTFVSPAAQKAFQPPRSCGTKYETPIKKK; UniProt P51587 3270-3315, looked up, fragment) : not
